# response of antibody #2 values compiled below
- TESTED ON: human LILRB2 (human) (UniProt Q8N423)
- EXPERIMENTAL PROTOCOL: BLI Octet sandwich binning; competitor (antibody #1 on sensor) J-11
Field format: numeric only.

Below: 3 binders and their reported response of antibody #2.
Request: I am curious: what response of antibody #2 value has been reported for J-04 (antibody, human IgG4 S228P, kappa, V domains shown) VH: QVQLQQSGAELVRPGASVTLSCKASGYTFADYEIHWVKQTPVHGLEWIGAIDPETGGTAYNQKFKGKAILTADKSSSTAYMELRSLTSEDSAVYYCTRYYDYDDAMDYWGQGTSVTVSS VL: QIVLTQSPAIMSASPGEKVTMTCSASSSVSFMHWYQQKSGTSPKRWIYGTSKLASGVPARFSGSGSGTSYSLTISSMEAEDAATYYCQQWNGNPFTFGSGTKLETKR ?
Response: 0.54

Request: I am curious: what response of antibody #2 value has been reported for J-11 (antibody, human IgG4 S228P, kappa, V domains shown) VH: QVQLQQSGAELMKPGASVKLSCKATGYILTGYWIEWVKQRPGHGLEWIGEILPGSGSTNYNENFKGKATFTADTSSNTAYMQLSSLTTEDSAIYYCARAVLGYFDYWGQGTTLTVSS VL: DIVMTQSHKFMSTSVGDRVSITCKASQDVSTAVAWYQQKPGQSPKLLIYWASTRHTGVPDRFTGSGSGTDYTLTISSVQAEDLALYYCHQHYSTYTFGGGTKLEIKR ?
Response: -0.24

Request: I am curious: what response of antibody #2 value has been reported for J-17 (antibody, human IgG4 S228P, kappa, V domains shown) VH: QIQLVQSGPELKKPGETVKISCKASGYTFTTYGLSWVKQTPGKGLKWMGWINTYSGVPTYTDDFKGRFAFSLETSASTAYLQINNLKNEDTATYFCARPYDFDQVGFAYWGQGTLVTVSA VL: SIVMTQTPKFLLVSAGDRVSITCKASQTVSSDVAWYQQKAGQSPKLLIYYASNRYTGVPDRFTGSGYGTDFTFTISTVQAEDLAVYFCQQDYSSPFTFGGGSKLEIKR ?
Response: -0.39

Next:
Request: I am curious: what response of antibody #2 value has been reported for J-19 (antibody, human IgG4 S228P, kappa, V domains shown) VH: QVTLKESGPGILQPSHTLSLTCSFSGFSLNTYAMGVSWIRQPSGKGLEWLASIWWNGNKYNNPSLKSRLTVSKDTSNNQAFLKVTSVDTADTATYYCAHSRIIRFTDYVMDAWGQGASVTVSS VL: DIQMTQSPASLSTFLGEPVTIECRASEDIYNDLAWYQQKPGKSPQLLIYNANSLHTGVPSRFSGSGSGTQYSLKINSLQSEDVASYFCQQYYDYPLTFGSGTKLEIKR ?
Response: 0.71
